# Tested on: Hepatitis C virus
# TEST PROTOCOL: Antiviral activity against HCV genotype 1b Con1 harboring HCV genotype 1a H77 NS3 R155K mutant infected in human HuH7 cells assessed as inhibition of viral replication after 96 hrs by luciferase reporter gene assay
# Assay type: functional, cell-based, Hepacivirus hominis
# REPORTED CONDITIONS: genotype 1b Con1, Huh-7, 96 h
Class field: derived from EC50; ranges bucket 1: < 1 nM; bucket 2: ≥ 1 nM and < 3 nM; bucket 3: ≥ 3 nM

{"columns": ["SMILES STRUCTURE", "ASSIGNED CATEGORY"],
 "data": [
  ["COc1ccc2nc(Cl)c(O[C@@H]3C[C@H]4C(=O)N[C@]5(C(=O)NS(=O)(=O)C6CC6)C[C@H]5/C=C\\CCCCC[C@H](NC(=O)OC5CCCC5)C(=O)N4C3)nc2c1", "bucket 1"],
  ["COc1ccc2nc(C(F)(F)F)c(O[C@@H]3C[C@H]4C(=O)N[C@]5(C(=O)NS(=O)(=O)C6(C)CC6)C[C@H]5/C=C\\CCCCC[C@H](NC(=O)OC5CCCC5)C(=O)N4C3)nc2c1", "bucket 3"]
]}

Just checking, what class would you give "COc1ccc2nc(Cl)c(O[C@@H]3C[C@H]4C(=O)N[C@]5(C(=O)NS(=O)(=O)C6(C)CC6)C[C@H]5/C=C\CCCCC[C@H](NC(=O)OC(C)(C)C)C(=O)N4C3)nc2c1" here? bucket 1

"COc1ccc2nc(C)c(O[C@@H]3C[C@H]4C(=O)N[C@]5(C(=O)NS(=O)(=O)C6(C)CC6)C[C@H]5/C=C\CCCCC[C@H](NC(=O)OC(C)(C)C)C(=O)N4C3)nc2c1" ? bucket 1

Next molecule: "COc1ccc2nc(C(C)C)c(O[C@@H]3C[C@H]4C(=O)N[C@]5(C(=O)NS(=O)(=O)C6CC6)C[C@H]5/C=C\CCCCC[C@H](NC(=O)OC(C)(C)C)C(=O)N4C3)nc2c1" bucket 3

Subsequent entry: "CCc1nc2ccc(OC)cc2nc1O[C@@H]1C[C@H]2C(=O)N[C@]3(C(=O)NS(=O)(=O)C4(C)CC4)C[C@H]3/C=C\CCCCC[C@H](NC(=O)OC(C)(C)C)C(=O)N2C1" bucket 2

One more molecule: "CCc1nc2ccc(OC)cc2nc1O[C@@H]1C[C@H]2C(=O)N[C@]3(C(=O)NS(=O)(=O)C4CC4)C[C@H]3/C=C\CCCCC[C@H](NC(=O)OC(C)(C)C)C(=O)N2C1" bucket 2

Next molecule: "COc1ccc2nc(C)c(O[C@@H]3C[C@H]4C(=O)N[C@]5(C(=O)NS(=O)(=O)C6CC6)C[C@H]5/C=C\CCCCC[C@H](NC(=O)OC5CCCC5)C(=O)N4C3)nc2c1" bucket 1
